Just for reference, ChEMBL document CHEMBL5385942 is where these values come from.

assay: Antiproliferative activity against human SW707 cells assessed as inhibition of cell growth incubated for 24 hrs by SRB assay; type: functional, cell-based; settings: SW707, 24 h
measuredParameter: pIC50
Note on units: pIC50 is unitless, being -log10 of a concentration expressed in mol/L.

Query: pIC50; subject: ClCCCN1CCN(c2nc(N3CCN(CCCl)CC3)nc(N3CCN(CCCl)CC3)n2)CC1
6.21

---

tested on: Quadruplex DNA; experiment: Stabilization of human G4 quadruplex telomeric22 DNA assessed as change in temperature at 10 uM by FRET assay; assay type: nucleic-acid assay
In this section we review reported ΔTm values for a set of compounds.
Give just the numeric value; °C need not be written.

See these solved cases before continuing.
[
  {
    "chemSmiles": "c1ccc2c(c1)[nH]c1ccc(-c3cc(-c4ccc5[nH]c6ccccc6c5c4)cc(-c4ccc5[nH]c6ccccc6c5c4)c3)cc12",
    "ΔTm [°C]": 2.6
  },
  {
    "chemSmiles": "CCN(CC)CCn1c2ccccc2c2cc(-c3cc(-c4ccc5c(c4)c4ccccc4n5CCN(CC)CC)cc(-c4ccc5c(c4)c4ccccc4n5CCN(CC)CC)c3)ccc21",
    "ΔTm [°C]": 3.3
  },
  {
    "chemSmiles": "c1ccc2c(c1)c1cc(-c3cc(-c4ccc5c(c4)c4ccccc4n5CCN4CCCCC4)cc(-c4ccc5c(c4)c4ccccc4n5CCN4CCCCC4)c3)ccc1n2CCN1CCCCC1",
    "ΔTm [°C]": 4.9
  },
  {
    "chemSmiles": "c1ccc2c(c1)c1cc(-c3cc(-c4ccc5c(c4)c4ccccc4n5CCN4CCCC4)cc(-c4ccc5c(c4)c4ccccc4n5CCN4CCCC4)c3)ccc1n2CCN1CCCC1",
    "ΔTm [°C]": 13
  },
  {
    "chemSmiles": "c1ccc2c(c1)c1cc(-c3cc(-c4ccc5c(c4)c4ccccc4n5CCCN4CCCCC4)cc(-c4ccc5c(c4)c4ccccc4n5CCCN4CCCCC4)c3)ccc1n2CCCN1CCCCC1",
    "ΔTm [°C]": 19.9
  }
]

Requested read-out: ΔTm. Entry: c1ccc2c(c1)c1cc(-c3cc(-c4ccc5c(c4)c4ccccc4n5CCCN4CCCC4)cc(-c4ccc5c(c4)c4ccccc4n5CCCN4CCCC4)c3)ccc1n2CCCN1CCCC1
17.5

Queued: CCN(CC)CCCn1c2ccccc2c2cc(-c3cc(-c4ccc5c(c4)c4ccccc4n5CCCN(CC)CC)cc(-c4ccc5c(c4)c4ccccc4n5CCCN(CC)CC)c3)ccc21
11.5
